assay.system: scFv-D005-msFcγ2c
experimental.endpoint: pEC50
Please express pEC50 as -log10 of the molar concentration.

The binder listed as SLLTEVETPIRNEWGCRCNDSSD (modifications not checked) [M2e consensus peptide (free, soluble)] shows pEC50 equal to 4.73

The binder listed as SLLTEVETPIRNEWGC (modifications not checked) [M2e-short] shows pEC50 equal to 4.56

Origin of values: patent US20110268740A1
